Listed next: entries and their corresponding pIC50.
target: NAD-dependent protein deacylase sirtuin-6 (Homo sapiens, UniProt Q8N6T7)
Sequence (Q8N6T7 whole entry, the tested form may be a part): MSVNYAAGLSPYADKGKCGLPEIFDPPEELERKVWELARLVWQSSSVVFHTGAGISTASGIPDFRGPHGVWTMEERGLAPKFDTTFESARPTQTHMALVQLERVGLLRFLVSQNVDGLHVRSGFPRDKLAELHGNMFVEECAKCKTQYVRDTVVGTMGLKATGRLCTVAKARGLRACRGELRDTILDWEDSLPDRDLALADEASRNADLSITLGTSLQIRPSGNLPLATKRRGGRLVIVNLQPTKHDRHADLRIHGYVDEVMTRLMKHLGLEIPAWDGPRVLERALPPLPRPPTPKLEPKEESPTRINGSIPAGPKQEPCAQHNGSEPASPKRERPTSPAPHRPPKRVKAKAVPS
pIC50: −log10 of the molar value. Residues, ends and D or L forms follow the SMILES beside them. *: point of attachment. X2 = CCCCCCCCCCCCCNC(=O)CCC*; X1 = CCCCCCCCCCNC(=O)CCC*; X3 = CCCCCCCCNC(=O)CCC*

Solved entries:
{"compound": "NC(=O)CCCCC[C@H](N)C(=O)O", "study.target": "NAD-dependent protein deacylase sirtuin-6 (Homo sapiens, UniProt Q8N6T7)", "pIC50": 4.68}
{"compound": "CCCCCCCCCCNC(=O)CCCSC[C@H](NC(=O)[C@H](CCCNC(=N)N)NC(=O)[C@H](C)NC(=O)[C@@H](NC(=O)[C@H](CCC(N)=O)NC(=O)[C@@H](N)CCCCN)[C@@H](C)O)C(=O)N[C@@H](CO)C(=O)N[C@H](C(=O)NCC(=O)NCC(=O)N[C@@H](CCCCN)C(=O)O)[C@@H](C)O (H-KQTARC(X1)STGGK-OH)", "study.target": "NAD-dependent protein deacylase sirtuin-6 (Homo sapiens, UniProt Q8N6T7)", "pIC50": "< 3.60"}
{"compound": "CCCCCCCCCCCCCC(=S)NCCCC[C@H](NC(=O)OCc1ccccc1)C(=O)Nc1ccccc1", "study.target": "NAD-dependent protein deacylase sirtuin-6 (Homo sapiens, UniProt Q8N6T7)", "pIC50": "< 3.70"}
{"compound": "CCCCCCCCCCCCCNC(=O)CCCSC[C@H](NC(=O)[C@H](CCCNC(=N)N)NC(=O)[C@H](C)NC(=O)[C@@H](NC(=O)[C@H](CCC(N)=O)NC(=O)[C@@H](N)CCCCN)[C@@H](C)O)C(=O)N[C@@H](CO)C(=O)N[C@H](C(=O)NCC(=O)NCC(=O)N[C@@H](CCCCN)C(=O)O)[C@@H](C)O (H-KQTARC(X2)STGGK-OH)", "study.target": "NAD-dependent protein deacylase sirtuin-6 (Homo sapiens, UniProt Q8N6T7)", "pIC50": "< 4.70"}

[in] Name the value of pIC50 reported for CCCCCCCCNC(=O)CCCSC[C@H](NC(=O)[C@H](CCCNC(=N)N)NC(=O)[C@H](C)NC(=O)[C@@H](NC(=O)[C@H](CCC(N)=O)NC(=O)[C@@H](N)CCCCN)[C@@H](C)O)C(=O)N[C@@H](CO)C(=O)N[C@H](C(=O)NCC(=O)NCC(=O)N[C@@H](CCCCN)C(=O)O)[C@@H](C)O (H-KQTARC(X3)STGGK-OH) when tested on NAD-dependent protein deacylase sirtuin-6 (Homo sapiens, UniProt Q8N6T7).
[out] < 3.30

====

biological target: NAD-dependent protein deacylase sirtuin-6 (Homo sapiens, UniProt Q8N6T7); assay: Inhibition of human SIRT6 (1 to 294 residues) expressed in Escherichia coli Rosetta (DE3) at 250 uM using H3K9AcWW as substrate preincubated for 15 mins followed by substrate addition measured after 1 hr by HPLC analysis relative to control
Residues, ends and D or L forms follow the SMILES beside them. *: point of attachment. X7 = O=C(CCC*)NCc1ccccc1; X8 = O=C(O)CNC(=O)CCC*
Form field: inhibition (one value per entry).

Sample answers from the record:
{"molecule": "C[C@H](NC(=O)[C@@H](NC(=O)[C@H](CCC(N)=O)NC(=O)[C@@H](N)CCCCN)[C@@H](C)O)C(=O)N[C@@H](CCCNC(=N)N)C(=O)N[C@@H](CSCCCC(=O)NCc1ccccc1)C(=O)N[C@@H](CO)C(=O)N[C@H](C(=O)NCC(=O)NCC(=O)N[C@@H](CCCCN)C(=O)O)[C@@H](C)O (H-KQTARC(X7)STGGK-OH)", "val": "28%"}
{"molecule": "C[C@H](NC(=O)[C@@H](NC(=O)[C@H](CCC(N)=O)NC(=O)[C@@H](N)CCCCN)[C@@H](C)O)C(=O)N[C@@H](CCCNC(=N)N)C(=O)N[C@@H](CSCCCC(=O)NCC(=O)O)C(=O)N[C@@H](CO)C(=O)N[C@H](C(=O)NCC(=O)NCC(=O)N[C@@H](CCCCN)C(=O)O)[C@@H](C)O (H-KQTARC(X8)STGGK-OH)", "val": "25%"}

Consider the record given below.
[in] Quote inhibition reported for NC(=O)c1cccnc1 please.
[out] 76%

====

Target: NAD-dependent protein deacetylase sirtuin-2 (Homo sapiens)
Sequence (whole entry): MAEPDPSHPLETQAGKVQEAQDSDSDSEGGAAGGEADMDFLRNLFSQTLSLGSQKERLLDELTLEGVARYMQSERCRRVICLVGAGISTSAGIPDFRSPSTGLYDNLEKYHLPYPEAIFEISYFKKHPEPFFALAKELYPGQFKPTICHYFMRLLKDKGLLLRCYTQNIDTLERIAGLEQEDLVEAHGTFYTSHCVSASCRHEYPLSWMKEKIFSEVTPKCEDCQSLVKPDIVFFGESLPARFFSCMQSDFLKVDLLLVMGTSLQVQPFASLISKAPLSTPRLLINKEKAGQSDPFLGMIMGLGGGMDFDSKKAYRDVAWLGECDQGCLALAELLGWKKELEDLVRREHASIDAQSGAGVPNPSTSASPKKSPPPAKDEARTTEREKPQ
Test: Inhibition of human N-terminal His6-SUMO-tagged SIRT2 (38 to 356 residues) expressed in Escherichia coli BL21 at 250 uM using H3K9AcWW as substrate preincubated for 15 mins followed by substrate addition measured after 1 hr by HPLC analysis relative to control
Residues, ends and D or L forms follow the SMILES beside them. *: point of attachment. X2 = CCCCCCCCCCCCCNC(=O)CCC*; X9 = CCNC(=O)CCC*
metric.name: inhibition

{"compound": "CCNC(=O)CCCSC[C@H](NC(=O)[C@H](CCCNC(=N)N)NC(=O)[C@H](C)NC(=O)[C@@H](NC(=O)[C@H](CCC(N)=O)NC(=O)[C@@H](N)CCCCN)[C@@H](C)O)C(=O)N[C@@H](CO)C(=O)N[C@H](C(=O)NCC(=O)NCC(=O)N[C@@H](CCCCN)C(=O)O)[C@@H](C)O (H-KQTARC(X9)STGGK-OH)", "study.target": "NAD-dependent protein deacetylase sirtuin-2 (Homo sapiens)", "inhibition": "13%"}

Then this compound:
[in] Give inhibition for CCCCCCCCCCCCCNC(=O)CCCSC[C@H](NC(=O)[C@H](CCCNC(=N)N)NC(=O)[C@H](C)NC(=O)[C@@H](NC(=O)[C@H](CCC(N)=O)NC(=O)[C@@H](N)CCCCN)[C@@H](C)O)C(=O)N[C@@H](CO)C(=O)N[C@H](C(=O)NCC(=O)NCC(=O)N[C@@H](CCCCN)C(=O)O)[C@@H](C)O (H-KQTARC(X2)STGGK-OH)
[out] 87%

====

molecular target: NAD-dependent protein deacylase sirtuin-5, mitochondrial (Homo sapiens); experiment: Inhibition of human SIRT5 expressed in Escherichia coli BL21 at 250 uM using H3K9AcWW as substrate preincubated for 15 mins followed by substrate addition measured after 1 hr by HPLC analysis relative to control
Sequence (Q9NXA8 37-310 limits assumed): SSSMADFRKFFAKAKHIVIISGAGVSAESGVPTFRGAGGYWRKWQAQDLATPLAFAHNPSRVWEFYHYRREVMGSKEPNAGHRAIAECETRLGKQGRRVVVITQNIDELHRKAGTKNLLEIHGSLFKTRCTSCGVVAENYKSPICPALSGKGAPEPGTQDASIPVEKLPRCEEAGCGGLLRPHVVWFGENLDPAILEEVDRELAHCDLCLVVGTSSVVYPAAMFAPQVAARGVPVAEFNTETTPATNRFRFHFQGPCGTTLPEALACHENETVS
Activity calls are given as the source filed them. No cut-off for these calls is given here. Residues, ends and D or L forms follow the SMILES beside them. *: point of attachment. X2 = CCCCCCCCCCCCCNC(=O)CCC*; X1 = CCCCCCCCCCNC(=O)CCC*; X10 = O=C(O)CCCNC(=O)CCC*; X7 = O=C(CCC*)NCc1ccccc1; X3 = CCCCCCCCNC(=O)CCC*; X8 = O=C(O)CNC(=O)CCC*; X12 = CCCCNC(=O)CCC*; X11 = CNC(=O)CCC*
metric.name: inhibition

{"compound": "C[C@H](NC(=O)[C@@H](NC(=O)[C@H](CCC(N)=O)NC(=O)[C@@H](N)CCCCN)[C@@H](C)O)C(=O)N[C@@H](CCCNC(=N)N)C(=O)N[C@@H](CSCCCC(=O)NCCCC(=O)O)C(=O)N[C@@H](CO)C(=O)N[C@H](C(=O)NCC(=O)NCC(=O)N[C@@H](CCCCN)C(=O)O)[C@@H](C)O (H-KQTARC(X10)STGGK-OH)", "inhibition": "16%"}
{"compound": "CNC(=O)CCCSC[C@H](NC(=O)[C@H](CCCNC(=N)N)NC(=O)[C@H](C)NC(=O)[C@@H](NC(=O)[C@H](CCC(N)=O)NC(=O)[C@@H](N)CCCCN)[C@@H](C)O)C(=O)N[C@@H](CO)C(=O)N[C@H](C(=O)NCC(=O)NCC(=O)N[C@@H](CCCCN)C(=O)O)[C@@H](C)O (H-KQTARC(X11)STGGK-OH)", "inhibition": "10%"}
{"compound": "CCCCCCCCNC(=O)CCCSC[C@H](NC(=O)[C@H](CCCNC(=N)N)NC(=O)[C@H](C)NC(=O)[C@@H](NC(=O)[C@H](CCC(N)=O)NC(=O)[C@@H](N)CCCCN)[C@@H](C)O)C(=O)N[C@@H](CO)C(=O)N[C@H](C(=O)NCC(=O)NCC(=O)N[C@@H](CCCCN)C(=O)O)[C@@H](C)O (H-KQTARC(X3)STGGK-OH)", "inhibition": "inactive"}
{"compound": "C[C@H](NC(=O)[C@@H](NC(=O)[C@H](CCC(N)=O)NC(=O)[C@@H](N)CCCCN)[C@@H](C)O)C(=O)N[C@@H](CCCNC(=N)N)C(=O)N[C@@H](CSCCCC(=O)NCC(=O)O)C(=O)N[C@@H](CO)C(=O)N[C@H](C(=O)NCC(=O)NCC(=O)N[C@@H](CCCCN)C(=O)O)[C@@H](C)O (H-KQTARC(X8)STGGK-OH)", "inhibition": "20%"}
{"compound": "CCCCCCCCCCCCCNC(=O)CCCSC[C@H](NC(=O)[C@H](CCCNC(=N)N)NC(=O)[C@H](C)NC(=O)[C@@H](NC(=O)[C@H](CCC(N)=O)NC(=O)[C@@H](N)CCCCN)[C@@H](C)O)C(=O)N[C@@H](CO)C(=O)N[C@H](C(=O)NCC(=O)NCC(=O)N[C@@H](CCCCN)C(=O)O)[C@@H](C)O (H-KQTARC(X2)STGGK-OH)", "inhibition": "inactive"}

[in] Report its inhibition with NAD-dependent protein deacylase sirtuin-5, mitochondrial (Homo sapiens) as the test system: C[C@H](NC(=O)[C@@H](NC(=O)[C@H](CCC(N)=O)NC(=O)[C@@H](N)CCCCN)[C@@H](C)O)C(=O)N[C@@H](CCCNC(=N)N)C(=O)N[C@@H](CSCCCC(=O)NCc1ccccc1)C(=O)N[C@@H](CO)C(=O)N[C@H](C(=O)NCC(=O)NCC(=O)N[C@@H](CCCCN)C(=O)O)[C@@H](C)O (H-KQTARC(X7)STGGK-OH)
[out] inactive

[in] System NAD-dependent protein deacylase sirtuin-5, mitochondrial (Homo sapiens). Read-out inhibition. Item CCCCCCCCCCNC(=O)CCCSC[C@H](NC(=O)[C@H](CCCNC(=N)N)NC(=O)[C@H](C)NC(=O)[C@@H](NC(=O)[C@H](CCC(N)=O)NC(=O)[C@@H](N)CCCCN)[C@@H](C)O)C(=O)N[C@@H](CO)C(=O)N[C@H](C(=O)NCC(=O)NCC(=O)N[C@@H](CCCCN)C(=O)O)[C@@H](C)O (H-KQTARC(X1)STGGK-OH) . Report value.
[out] inactive

[in] Determine reported inhibition for NC(=O)c1cccnc1 ; test system: NAD-dependent protein deacylase sirtuin-5, mitochondrial (Homo sapiens).
[out] 69%

[in] Tell me inhibition of CCCCNC(=O)CCCSC[C@H](NC(=O)[C@H](CCCNC(=N)N)NC(=O)[C@H](C)NC(=O)[C@@H](NC(=O)[C@H](CCC(N)=O)NC(=O)[C@@H](N)CCCCN)[C@@H](C)O)C(=O)N[C@@H](CO)C(=O)N[C@H](C(=O)NCC(=O)NCC(=O)N[C@@H](CCCCN)C(=O)O)[C@@H](C)O (H-KQTARC(X12)STGGK-OH) when tested on NAD-dependent protein deacylase sirtuin-5, mitochondrial (Homo sapiens).
[out] inactive

All values here come from ChEMBL document CHEMBL4118276.
